Assay: soluble on expression in E. coli; label from the status in PepcDB or PDB records
endpoint: soluble on expression in E. coli

Query: Report soluble on expression in E. coli, nothing else, for this sequence: MTSITVQLRSGLDGVYFALKQMSGLRAKLLLVGNENPVPTVLPASQRGTPFPGGNTMTQASLIRLSELNNDAQYNLNDTSMYNPVGAAAYGVNGDKIGTVRDALVEPETGRIRYFLVDVGGWFSSKEVLVPVGYGRVDDSGVYFDSLTKDQVKDMSEYRADQAYSSEMMDTDERVLRGNQSQEEYHQRAYQTPDRLQLLEERLVVNKDRFKAGSVQIGKRIETRQETVSVPLQREEVVIERHAVTDGRAVEGAVLGEGHQTMSVDLEAERANISKQAYVTEEVSVGKRAVTETQQVTETVGREVLDVNQTGDVRTTEGTALTDDTTKRNILEHHHHHH
Reply: soluble

Query: Report soluble on expression in E. coli, nothing else, for this sequence: MLITVYCVRRDLSEVTFSLQVSPDFELRNFKVLCEAESRVPVEEIQIIHMERLLIEDHCSLGSYGLKDGDIVVLLQKDNVGPRAPGRAPNQPRVDFSGIAVPGTSSSRPQHPGQQQQRTPAAQRSQGLASGEKVAGLQGLGGPALIRSMLLSNPHDLSLLKERNPPLAEALLSGSLETFSQVLMEQQREKALREQERLRLYTADPLDREAQAKIEEEIRQQNIEENMNIAIEEAPESFEQVTMLYINCKVNGHPLKAFVDSGAQMTIMSQACAERCNIMRLVDRRWAGVAKGVGTQRIIGRVHLAQIQIEGDFLQCSFSILEDQPMDMLLGLDMLRRHQCSIDLKKNVLVIGTTGTQTYFLPEGELPLCSRMVSGQDESSDKEITHSVMDSGRKEH
Reply: soluble

====

Test: soluble on expression in E. coli; label from the status in PepcDB or PDB records
endpoint: soluble on expression in E. coli

Here's what some known entries look like.
Query: Report soluble on expression in E. coli, nothing else, for this sequence: EVVRLGDVLELCQYGLSVPLKDKGKYPVIRMDEIVNGYVVTDIAKYADLDEETFKNFKLEKGDVLFNRTNSLELVGRTGIFLLDGYYVFASYLIRLRPKHEILHPHFLTFYLIFSQSRLKQLATVAVHQANINATNLKKFKIPLPPLPEQQKIAEILSTV
Reply: soluble

Query: Report soluble on expression in E. coli, nothing else, for this sequence: MGSDKIHHHHHHMEHIEKLNAVLKHIKTSFVGKDEIIDLLGISLIARENAFLLGPPGTAKSAIIRALSACISDGKNFEYLLTRFTEPGELFGPFDIRKLKEGDLVTNTEGMMPEASMVFLDEIFNANSAILNSLLTALNERIFRRGKETKKLPALMFIGASNVLPEDESLNALLDRFLIRARCDYVDTDLLEEVLVAGWNLETRNQNQKPAIAPAEIIELQQYAKQVDVSTVRRQYVDLIHNLRNTGIKISDRRAVKIQNLLAASAVMSNRKEVIPSDLWVLKHVWDTEEQIEILEGIINTIIEKDTNPLAHPQAQYNKTPNAEELIKEIIQLTEKWESGNLSFEEQNVVKDKLRYLQTRSNWIKNNEHKLHIQEKIESLWHKMLQTI
Reply: not soluble

Query: Report soluble on expression in E. coli, nothing else, for this sequence: IKLNTLNTMSMGVTMRYMSEKYFKMMCGVQMEINYSQRGWDEKIEDDSGNSYSRTMNYLEIPFMAHLAFGKDALNRGVKVFFNAGPQIGFFLGDNEKINWTTSTTRPEHGKEVENKFDYGITAGAGLEVSTGIGHFLLEGRYYMGLSDFYKNSKRDFFERSAHSFIGIRLSYLI
Reply: not soluble

Query: Report soluble on expression in E. coli, nothing else, for this sequence: MARILVIEDEPLVGHMLRRFLERAGHDVVWAPNGEVGLRRLAEGFDLVVCDLIMPGIPGEEVIRRIREEAGPPVLAVSASVSRESQRRALEAGAQAFLGKPFEAQAFLRVVEGLLRGT
Reply: soluble

Query: Report soluble on expression in E. coli, nothing else, for this sequence: MNKRNTQQRRHSIISILNEQGEVSVDELSLRFETSEVTIRKDLAELEKTGLLLRRYGGAVAIPDEVTQQFSAKIAPNKLSIAKAAAQLIKDHNRIIIDSGTTTSGLIAELNQKRGLVVMTNALHLANAIHELENEPTLLMTGGTWDPHSESFQGQVAEQVLRSYNFDQLFIGADGIDLARGTTTFNELTGLSKVMAEVSREVIVMVDSDKIGKRIPNLELPWSKISVLVTDARIEESALKQITEQGVKVILAPYSPLEHHHHHH
Reply: soluble

Query: Report soluble on expression in E. coli, nothing else, for this sequence: NGLVDSMIKNAIAWQTSHLQIHQSAYLVNPELKDTIPDSQSIVTTLDKHQSVKAVSERFLADGMIASARSSRGIRINGIHLEQEQKITPLSEHIIDGYWLDEEGRNPILVSQKTAKRLKLRVGSKVILTLSDINGDVSGAAFRVKGIFKTPSTTFDDGNVYVRKADLEKIAGIAGAHEIAILLNANDDDVLQNIVSFTRTLTDDGSGKPLTVRTWLEIQPLLSTMMSSMDISNQ
Reply: not soluble

Query: Report soluble on expression in E. coli, nothing else, for this sequence: MTRTPFSRRRFLQLSGGLALAGVSLPLWAHDMADMAGGDAHPALRLPEPYKIKLAINKSAVCLAPVAVAEQQKIFSKYNLDVEFVNFGNSTDVLLEAIATGKADAGVGMALRWLKALEQGFDVKLTAGTHGGCLNLLTAKDSPFGGLESLKGQTIGVTDMAGPDKNFFAILLKRHGIDPISDVQWKVYPADLLSVALDKREIAAISGSEPFSYRLLETGKYQLIASNMTGDYANLSCCVLGVSGSLARDHKPAAAALTQAILEAHSYAAAHPESVAQSFLAHALNTSEAEVSGILHGQGHGHHAVGEAFVKELTQYAVDLQRVQVIKPGTDPHQFAESIYANVFA
Reply: not soluble

Query: Report soluble on expression in E. coli, nothing else, for this sequence: MGSDKIHHHHHHMQFGKTDTPEDIDFTLPKDHPDTKKILSEAKPGKHFNVYVGCAKWNKTDLKNFYPKGTKDELQYYATQFNSIELNATFYKSPSKDQVQTWKAKAAKGFKFFPKIPNTISHFKRLVGVETIVEEFCDAVVLFEENLGMSFLQMHDNFKPKDMDKLDAFLKKFPASVPLAVELRNEEWYSDKNVQDDLHAMLVKYKKTFVLVDTAARRDIMHMRLTSDKAFIRYVGANHESDYARLDDWIKRIKTWRKEGLNELYFFVHQNVELESPLLSAYFIEKMNKEFDLDLTVPQTIKKKQ
Reply: not soluble

Continuing:
Query: Report soluble on expression in E. coli, nothing else, for this sequence: LVSSPSTLNPGTNVAKLAEQAPVHWVSVAQIENSLTGRPPMAVGFDIDDTVLFSSPGFWRGKKTYSPDSDDYLKNPAFWEKMNNGWDEFSIPKEAARQLIDMHVRRGDSIYFVTGRSQTKTETVSKTLADNFHIPAANMNPVIFAGDKPEQNTRVQWLQEKNMRIFYGDSDNDITAARDCGIRGIRILRAANSTYKPLPQAGAFGEEVIVNSEY
Reply: soluble

Query: Report soluble on expression in E. coli, nothing else, for this sequence: MRIEVVNVSHIFHRGTPLEKKALENVSLVINEGECLLVAGNTGSGKSTLLQIVAGLIEPTSGDVLYDGERKKGYEIRRNIGIAFQYPEDQFFAERVFDEVAFAVKNFYPDRDPVPLVKKAMEFVGLDFDSFKDRVPFFLSGGEKRRVAIASVIVHEPDILILDEPLVGLDREGKTDLLRIVEKWKTLGKTVILISHDIETVINHVDRVVVLEKGKKVFDGTRMEFLEKYDPRFFTSKMLVMRRLVLKGEDPFSMSDDELLERVCNS
Reply: soluble

Query: Report soluble on expression in E. coli, nothing else, for this sequence: MGSDKIHHHHHHMTDKLLKQHKRLLEQQHKLPYTINLSGEVFTIIIYTKLSKVAGVTVLNSQEEPATVKEAEAVVNRIQKYNFYFEYLGKRAHVIKERDSIIAEKIEQTQLILNDNTIFGEKMQPTIDELNLAMEVYKQQQRKMDVYQEDITLLNQKIKMQGEILEEDWESAENLSIAFAKAAYAQSIYLEATRKNRKQLAKWFHLHQKELPTDKQKALSKMVSVLSDTNAGLVFDQIISLRPLLEEGLMLDHEQSLTQRAAEFNKEFETHCRFYKPNINKVKNLIRQ
Reply: not soluble
